- MEASURED_TARGET: T1, human ROR1 'Ig-Frizzled domain' (human, UniProt Q01973)
- T1 construct: used plain or biotinylated
- T1 sequence (Q01973 30-305 limits assumed): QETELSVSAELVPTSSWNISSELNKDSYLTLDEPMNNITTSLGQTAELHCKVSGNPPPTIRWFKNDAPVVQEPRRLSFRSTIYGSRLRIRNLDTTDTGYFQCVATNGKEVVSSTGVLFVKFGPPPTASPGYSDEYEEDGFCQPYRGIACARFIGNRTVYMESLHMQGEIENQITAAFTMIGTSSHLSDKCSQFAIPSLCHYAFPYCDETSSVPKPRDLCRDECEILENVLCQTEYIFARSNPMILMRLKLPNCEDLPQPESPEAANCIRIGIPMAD
- ASSAY_EXPLANATION: ELISA, biotinylated antigen on avidin plate; BCC supernatant
OBSERVATION_TYPE: ELISA OD450

1. 324C7 (antibody, V domains shown, chimeric counterpart m4; also called rabbit IgG of BCC well 324C7) VH: QSVEESGGRLVTPGTPLTLTCTVSGFSLSGAGVSWVRQAPGKGLEWIGYIDSGATTYYASWAKGRFTISKASTTVDLKIASPTTEDTATYFCARGYYGMDPWGQGTLVTVSS VL: DIVMTQTPASVEVAVGGTVTIKCQASQNIGSDLAWYQQKPGQPPKLLIYTTSNLASGVPSRFKGSGSGTGFTLTISDLECADAASYCCQGGYFSGRNIYGNAFGGGTEVVVK | 2.67 OD450
2. 330F11 (antibody, V domains shown, chimeric counterpart m9; also called rabbit IgG of BCC well 330F11) VH: QSVEESGGRLVTPGTPLTLTCTVSGFSLNNYWMSWVRQAPGEGLEWIGTISSGAYTWFATWATGRFTISKTSTTVDLSITSPTTEDTATYFCARYSSTTDWTYFNIWGPGTLVTVSS VL: DVVMTQTPASVEAAVGGTVTIKCQASQSINNYLAWYQQKPGQPPKLLIYRASTLESGVPSRFKGSGSGTQFTLTISDLECADAATYYCQSYNGVGRTAFGGGTEVEFK | 0.15 OD450
3. 323D10 (antibody, V domains shown, chimeric counterpart m5; also called rabbit IgG of BCC well 323D10) VH: QSVEESGGRLVTPGTPLTLTCTVSGFSLSRNAMNWVRQAPGKGLEYIGYISTSGTTFYANWVKGRFTISKTSTTVDLKMTSLTTEDTATYFCARDYNYAMDIWGQGTLVTVSS VL: AIDLTQTPASVEAAVGGTITINCQASESISSWLAWYQQKPGQRPKLLIYETSKLASGVPPRFSGSGSGTQFTLTISGVQCDDAATYYCQSYYRINNIGYDNAFGGGTEVEFK | 2.23 OD450
